Experiment: SK-BR-3 cell growth inhibitors, pilot screen, 24 h, human (AID 572);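 also: compound exposure lasted between 18 and 24 h rather than exactly 24 h; 100% = carrier-treated control wells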
Settings: SK-BR-3 viability, CellTiter-Glo luminescence, at 10 µM, active compounds read low
Result Type: viability (%)
The response must be a number in % with no trailing unit.

{"Molecule": "CC(=O)Nc1ccc(S(=O)(=O)CCC#N)cc1", "Result Units": "%", "Assay Value": 109}
{"Molecule": "CS(=O)(=O)N(CC(=O)Nc1ccc2c(c1)OCO2)Cc1ccc(Cl)cc1", "Result Units": "%", "Assay Value": 70}
{"Molecule": "CCOC(=O)c1sc(NC(=O)CSc2ncn(-c3ccccc3)n2)nc1C", "Result Units": "%", "Assay Value": 109}
{"Molecule": "Cc1ccc(-c2nc3cc(N)ccc3o2)cc1", "Result Units": "%", "Assay Value": 104}
{"Molecule": "COc1ccc(CCN2CC(O)=C(c3nc4ccccc4c(=O)[nH]3)C2=N)cc1OC", "Result Units": "%", "Assay Value": 105}
{"Molecule": "COc1ccc(-c2noc(COc3ccc(C)c(C)c3)n2)cc1OC", "Result Units": "%", "Assay Value": 110}
{"Molecule": "COc1cc(CN2CCSCC2)cc(OC)c1OC", "Result Units": "%", "Assay Value": 89.5}
{"Molecule": "CCC(C)(C)n1nnnc1C(c1ccc(OC)c(OC)c1)N1CCN(c2ccccc2)CC1 (stereo not given)", "Result Units": "%", "Assay Value": 85}

Form field: reported viability of O=C(CNCC1CCCO1)Nc1ccccc1-n1cccc1 (stereo not given)
80

Form field: reported viability of Cc1cc(C)nc(SC2=CS(=O)(=O)c3ccccc32)n1
102

Form field: reported viability of CC(=O)Nc1cccc(NC(=O)C2CCCN2C(=O)Nc2ccc(C)cc2)c1 (stereo not given)
89

Form field: reported viability of COc1ccc(NC(=O)N2CCN(c3nc(-c4cccc(OC)c4)cs3)CC2)cc1
94

Form field: reported viability of CCOc1cc(C2Nc3ccccc3C(=O)N2c2ccccc2OC)ccc1O (stereo not given)
98

Form field: reported viability of O=C(Nc1ccncc1)C1c2ccccc2Oc2ccccc21
121

Form field: reported viability of CN(C)CCOC(c1ccccc1)c1ccccc1
78

Form field: reported viability of CC(C)NCC(O)COc1cccc2[nH]ccc12 (stereo not given)
111

Form field: reported viability of COc1ccc(CNC(=O)C(c2ccco2)N(Cc2cccs2)C(=O)Cc2cccs2)cc1 (stereo not given)
96.5

Form field: reported viability of CC(C)OC(=O)C(C)(C)Oc1ccc(C(=O)c2ccc(Cl)cc2)cc1
88

Form field: reported viability of CCc1nn(CC(=O)N2CCN(Cc3ccc4c(c3)OCO4)CC2)c(=O)c2cc3occc3n12
87

Form field: reported viability of Cn1c(C(=O)NCc2cccnc2)cc2sccc21
115

Form field: reported viability of CCOc1cc(NC(=O)c2ccco2)c(OCC)cc1NC(=O)COc1ccccc1C
67

Form field: reported viability of N#Cc1c(N)nc(SCc2ccncc2)c(C#N)c1-c1cccs1
98.5

Form field: reported viability of CCC(C(=O)Nc1ccccc1C(=O)N1CCCC1)N1C(=O)c2ccccc2C1=O (stereo not given)
96.5

Form field: reported viability of COc1cc(NC2c3ccccc3C(=O)N2c2ccc(C)cn2)cc(OC)c1OC (stereo not given)
90.5

Form field: reported viability of COC(=O)CSc1ncccc1-c1nc2ccccc2[nH]1
110

Origin of the recorded values: PubChem BioAssay
